System: IGR37-XP cells (Vemurafenib-resistant)
Protocol text: Kinase inhibitor library screening, PrestoBlue cell viability, 1 or 10 μM, 72 h
Test parameters: Homo sapiens, IGR-37, 72 h, read-out: cell viability, IGR37 XP, 10μΜ
Counter-ions that a name gives are not always drawn.
Measured metric: viability at 10 µM (%)
Report only the number, with the unit % understood.

As a guide, the following entries are already answered.
>>> df
                                   molecule                            study_system  measured_number
0  CNC(=O)CN1CCC(Oc2cc3c(Nc4cccc(Cl)c4F)ncnc3cc2OC)CC1  IGR37-XP cells (Vemurafenib-resistant)               50
1  CCS(=O)(=O)N1CC(CC#N)(n2cc(-c3ncnc4[nH]ccc34)cn2)C1  IGR37-XP cells (Vemurafenib-resistant)             75.3

[ask] May I ask what viability at 10 µM has been recorded for CC(C)(C)c1cc(NC(=O)Nc2ccc(-c3cn4c(n3)sc3cc(OCCN5CCOCC5)ccc34)cc2)no1 ?
[reply] 7.2

[ask] # repeat for Cc1cc(Nc2cc(CN3CCOCC3)c3nc(C)c(Cc4ccc(Cl)cc4F)n3n2)n[nH]1
[reply] 17.9

[ask] Same read-out for C#Cc1cccc(Nc2ncnc3cc(OCCOC)c(OCCOC)cc23)c1 [Erlotinib HCl] ?
[reply] 51.9

[ask] Subsequent entry: C[C@]1(O)C[C@@H](c2nc(-c3ccc4ccc(-c5ccccc5)nc4c3)c3c(N)nccn32)C1
[reply] 6.7

[ask] Can you check C[C@@H]1COC(Nc2ccc3ncnc(Nc4ccc(OCc5nccs5)c(Cl)c4)c3c2)=N1 next?
[reply] 11.7
